Listed here are compounds together with their documented pIC50.
assay target: p-AXL (Homo sapiens)
assay remarks: Axl phosphorylation inhibition ELISA in HEK293T cells transfected with NanoLuc-tagged AXL
settings: 1 h compound incubation, media (OptiMEM)
pIC50: −log10 of the molar value.

Answered examples (3):
[
  {
    "compound": "O=C1OCCN1c1nccnc1-c1ccc(-c2n[nH]c3ncc(-c4ccc5c(c4)CC[C@@H](N4C6COCC4C6)CC5)cc23)cc1 [Example 126]",
    "measured metric": "pIC50",
    "measured value": "6.00 to 7.00"
  },
  {
    "compound": "Cc1cccnc1-c1ccc(-c2c[nH]c3ncc(-c4ccc5c(c4)CC[C@@](C)(N4CCC[C@H]4C)CC5)cc23)cc1 [Example 172]",
    "measured metric": "pIC50",
    "measured value": "> 7.00"
  },
  {
    "compound": "O=C(c1cccnc1-c1ccc(-c2n[nH]c3ncc(-c4ccc5c(c4)CC[C@@H](N4C6COCC4C6)CC5)cc23)cc1)N1CCCC1 [Example 4]",
    "measured metric": "pIC50",
    "measured value": "6.00 to 7.00"
  }
]

Qu. Please indicate pIC50 recorded for Cc1cnc(C)c(-c2ccc(-c3c[nH]c4ncc(-c5ccc6c(c5)CC[C@@](C)(N5CCC[C@H]5C)CC6)cc34)nc2)n1 [Example 68]
Ans. > 7.00

Qu. Please indicate pIC50 recorded for O=C1OCCN1c1cccnc1-c1ccc(-c2n[nH]c3ncc(-c4ccc5c(c4)CC[C@@H](N4C6COCC4C6)CC5)cc23)cc1 [Example 121]
Ans. > 7.00

Qu. Please indicate pIC50 recorded for Cc1ccc(C#N)nc1-c1ccc(-c2c[nH]c3ncc(-c4ccc5c(c4)CC[C@@H](N4C6COCC4C6)CC5)cc23)cc1 [Example 75]
Ans. > 7.00

Qu. Please indicate pIC50 recorded for COCCN1CCc2ccc(-c3cnc4[nH]nc(-c5ccc(-c6ncccc6C)cc5)c4c3)cc2CC1 [Example 15]
Ans. 6.00 to 7.00

Qu. Please indicate pIC50 recorded for c1ccc(-n2cc(-c3n[nH]c4ncc(-c5ccc6c(c5)CC[C@@H](N5C7COCC5C7)CC6)cc34)cn2)nc1 [Example 168]
Ans. 6.00 to 7.00

====

assay target: recombinant human MER (Homo sapiens, UniProt Q12866)
Sequence (Q12866 21-999): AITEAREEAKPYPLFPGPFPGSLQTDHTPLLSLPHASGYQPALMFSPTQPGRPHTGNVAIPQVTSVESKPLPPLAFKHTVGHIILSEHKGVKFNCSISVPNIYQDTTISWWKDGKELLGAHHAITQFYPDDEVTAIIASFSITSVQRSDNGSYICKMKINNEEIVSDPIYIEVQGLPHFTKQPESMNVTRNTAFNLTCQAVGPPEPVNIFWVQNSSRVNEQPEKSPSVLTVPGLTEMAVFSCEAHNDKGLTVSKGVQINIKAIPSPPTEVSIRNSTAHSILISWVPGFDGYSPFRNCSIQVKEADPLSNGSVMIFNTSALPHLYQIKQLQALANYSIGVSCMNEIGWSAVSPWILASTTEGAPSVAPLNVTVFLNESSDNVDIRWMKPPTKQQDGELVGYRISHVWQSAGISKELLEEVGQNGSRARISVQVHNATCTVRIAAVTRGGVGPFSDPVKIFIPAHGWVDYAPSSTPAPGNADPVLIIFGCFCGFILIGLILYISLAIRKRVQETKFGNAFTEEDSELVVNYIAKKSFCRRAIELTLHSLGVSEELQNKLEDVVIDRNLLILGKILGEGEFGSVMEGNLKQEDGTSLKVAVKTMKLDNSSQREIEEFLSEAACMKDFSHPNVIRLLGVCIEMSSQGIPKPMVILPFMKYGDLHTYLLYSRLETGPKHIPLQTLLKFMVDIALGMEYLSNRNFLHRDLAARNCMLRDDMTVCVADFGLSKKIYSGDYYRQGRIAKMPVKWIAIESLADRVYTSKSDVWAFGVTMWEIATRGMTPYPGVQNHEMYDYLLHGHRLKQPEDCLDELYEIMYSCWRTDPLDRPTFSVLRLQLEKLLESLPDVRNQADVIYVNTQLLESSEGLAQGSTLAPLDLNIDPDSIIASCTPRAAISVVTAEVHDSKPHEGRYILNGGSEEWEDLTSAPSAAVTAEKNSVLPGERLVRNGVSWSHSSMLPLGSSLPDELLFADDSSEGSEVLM
assay remarks: Biochemical potency, HTRF KinEASE-TK kinase assay
settings: 1 nM MER, 700 μM ATP
pIC50: −log10 of the molar value.
Listed here are compounds together with their documented pIC50.

Answered examples (5):
[
  {
    "substance smiles": "COc1ccnc(-c2ccc(-c3c[nH]c4ncc(-c5ccc6c(c5)CC[C@@H](N5C7COCC5C7)CC6)cc34)cc2)c1C",
    "pIC50": "6.00 to 7.00"
  },
  {
    "substance smiles": "Cc1ccnc(-c2ccc(-c3n[nH]c4ncc(-c5ccc6c(c5)CC[C@@H](N5C7COCC5C7)CC6)cc34)cc2)c1",
    "pIC50": "< 6.00"
  },
  {
    "substance smiles": "Cc1cnc(-c2ccc(-c3c[nH]c4ncc(-c5ccc6c(c5)CC[C@@](C)(N5CCC[C@H]5C)CC6)cc34)cc2)c(C)n1",
    "pIC50": "6.00 to 7.00"
  },
  {
    "substance smiles": "CN(C(=O)C1CC1)c1cccnc1-c1ccc(-c2n[nH]c3ncc(-c4ccc5c(c4)CC[C@@H](N4C6COCC4C6)CC5)cc23)cc1",
    "pIC50": "6.00 to 7.00"
  },
  {
    "substance smiles": "Cc1cc(F)cnc1-c1ccc(-c2c[nH]c3ncc(-c4ccc5c(c4)CC[C@@H](N4C6COCC4C6)CC5)cc23)cc1",
    "pIC50": "6.00 to 7.00"
  }
]

Qu. Please indicate pIC50 recorded for CC(C)(C#N)c1cccnc1-c1ccc(-c2n[nH]c3ncc(-c4ccc5c(c4)CC[C@@H](N4C6COCC4C6)CC5)cc23)cc1
Ans. 6.00 to 7.00

Qu. Please indicate pIC50 recorded for CN(C)S(=O)(=O)c1cccnc1-c1ccc(-c2c[nH]c3ncc(-c4ccc5c(c4)CC[C@@H](N4C6COCC4C6)CC5)cc23)cc1
Ans. 6.00 to 7.00

Qu. Please indicate pIC50 recorded for C[C@@H]1CCCN1[C@@]1(C)CCc2ccc(-c3cnc4[nH]nc(-c5ccc(-c6ncco6)cc5)c4c3)cc2CC1
Ans. 6.00 to 7.00

====

assay target: p-AXL (Homo sapiens, UniProt P30530)
Construct: expressed in transfected cells; host or cells: HEK293T
assay remarks: Axl phosphorylation inhibition ELISA in HEK293T cells transfected with NanoLuc-tagged AXL
Type: cell-based
settings: 1 h compound incubation, media (OptiMEM)
Description: [formula] Measurement of Axl Phosphorylation Inhibition […] HEK293T cells were grown in DMEM containing 10% FBS, 1% Pen/Strep, 1% G-Max. […] The captured NanoLuc tagged p-AXL was detected using Nano-Glo® Luciferase Assay System (Promega) and manufacturer's instruction. The luminescence signal was measured using Envision plate reader. IC50 values were determined by fitting the data to a standard 4-parameter logistic equation.
Listed here are molecules together with their documented IC50.

Answered examples (3):
[
  {
    "substance smiles": "Cc1cccnc1-c1ccnc(-c2c[nH]c3ncc(-c4ccc5c(c4)CC[C@@H](N4C6COCC4C6)CC5)cc23)c1",
    "assay target": "p-AXL (Homo sapiens, UniProt P30530)",
    "IC50": "< 100 nM"
  },
  {
    "substance smiles": "Cc1ccccc1-c1ccc(-c2n[nH]c3ncc(-c4ccc5c(c4)CC[C@@H](N4C6COCC4C6)CC5)cc23)nc1",
    "assay target": "p-AXL (Homo sapiens, UniProt P30530)",
    "IC50": "100 to 1000 nM"
  },
  {
    "substance smiles": "Cc1cccnc1-c1ccc(-c2n[nH]c3ncc(-c4ccc5c(c4)CC[C@@H](N4C6COCC4C6)CC5)cc23)cc1",
    "assay target": "p-AXL (Homo sapiens, UniProt P30530)",
    "IC50": "< 100 nM"
  }
]

Qu. Please indicate IC50 recorded for Cc1cc(F)cnc1-c1ccc(-c2c[nH]c3ncc(-c4ccc5c(c4)CC[C@@H](N4C6COCC4C6)CC5)cc23)nc1
Ans. < 100 nM

Qu. Please indicate IC50 recorded for Cn1ncnc1-c1ccc(-c2c[nH]c3ncc(-c4ccc5c(c4)CC[C@@H](N4C6COCC4C6)CC5)cc23)cc1
Ans. < 100 nM

====

Listed here are compounds together with their documented IC50.
assay target: Axl (Homo sapiens)
Sequence (P30530 26-894): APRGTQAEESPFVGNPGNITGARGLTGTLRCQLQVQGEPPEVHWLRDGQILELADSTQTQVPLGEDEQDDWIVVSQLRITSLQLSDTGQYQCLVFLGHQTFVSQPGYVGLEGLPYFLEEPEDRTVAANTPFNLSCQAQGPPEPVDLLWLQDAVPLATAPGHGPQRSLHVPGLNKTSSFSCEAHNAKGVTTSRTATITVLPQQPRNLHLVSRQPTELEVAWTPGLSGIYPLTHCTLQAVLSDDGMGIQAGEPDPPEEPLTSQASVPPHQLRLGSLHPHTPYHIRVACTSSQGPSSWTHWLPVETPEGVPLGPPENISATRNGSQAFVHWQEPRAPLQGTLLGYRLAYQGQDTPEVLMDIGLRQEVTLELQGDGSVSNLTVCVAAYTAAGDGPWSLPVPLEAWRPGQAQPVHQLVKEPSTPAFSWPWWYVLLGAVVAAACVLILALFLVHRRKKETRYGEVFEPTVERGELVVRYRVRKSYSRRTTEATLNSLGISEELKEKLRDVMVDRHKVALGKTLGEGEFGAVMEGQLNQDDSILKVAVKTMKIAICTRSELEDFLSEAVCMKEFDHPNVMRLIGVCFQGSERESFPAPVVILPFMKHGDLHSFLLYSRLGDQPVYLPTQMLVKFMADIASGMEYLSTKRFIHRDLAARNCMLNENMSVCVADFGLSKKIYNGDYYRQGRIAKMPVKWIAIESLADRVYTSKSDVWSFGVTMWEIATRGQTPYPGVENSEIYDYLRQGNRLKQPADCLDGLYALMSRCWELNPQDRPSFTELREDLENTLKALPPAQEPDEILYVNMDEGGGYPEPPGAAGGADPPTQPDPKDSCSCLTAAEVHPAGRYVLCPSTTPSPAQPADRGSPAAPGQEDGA
assay remarks: Axl NanoBRET intracellular kinase assay (intracellular binding, K-5 tracer displacement)
Parameters: host or cells: HEK-293
settings: HEK-293 cells transfected with Axl-NanoLuc, 0.35 μM K-5 NanoBRET tracer; read-out: Cell Binding AXL

[
  {
    "compound": "Cn1cnnc1-c1ccc(-c2n[nH]c3ncc(-c4ccc5c(c4)CC[C@@H](N4C6COCC4C6)CC5)cc23)cc1 [Example 169]",
    "measured value": "< 100 nM"
  },
  {
    "compound": "Clc1cc(-c2c[nH]c3ncc(-c4ccc5c(c4)CC[C@@H](N4C6COCC4C6)CC5)cc23)ccc1-c1ccccn1 [Example 44]",
    "measured value": "< 100 nM"
  },
  {
    "compound": "COc1cc(-c2c[nH]c3ncc(-c4ccc5c(c4)CC[C@@H](N4C6COCC4C6)CC5)cc23)ccc1-c1ccccn1 [Example 161]",
    "measured value": "100 to 1000 nM"
  },
  {
    "compound": "c1cc(-n2cc(-c3c[nH]c4ncc(-c5ccc6c(c5)CC[C@@H](N5C7COCC5C7)CC6)cc34)cn2)ccn1 [Example 45]",
    "measured value": "< 100 nM"
  },
  {
    "compound": "Cc1ccnnc1-c1ccc(-c2n[nH]c3ncc(-c4ccc5c(c4)CC[C@@H](N4C6COCC4C6)CC5)cc23)cc1 [Example 176]",
    "measured value": "< 100 nM"
  },
  {
    "compound": "Cc1nccnc1-c1ccc(-c2n[nH]c3ncc(-c4ccc5c(c4)CC[C@@H](N4C6COCC4C6)CC5)cc23)cc1 [Example 175]",
    "measured value": "< 100 nM"
  },
  {
    "compound": "c1ccc(-n2cc(-c3n[nH]c4ncc(-c5ccc6c(c5)CC[C@@H](N5C7COCC5C7)CC6)cc34)cn2)nc1 [Example 168]",
    "measured value": "< 100 nM"
  },
  {
    "compound": "COc1cccc(-c2ccc(-c3n[nH]c4ncc(-c5ccc6c(c5)CC[C@@H](N5C7COCC5C7)CC6)cc34)cc2)n1 [Example 162]",
    "measured value": "> 1000 nM"
  }
]

Qu. Please look at Cc1cncnc1-c1ccc(-c2c[nH]c3ncc(-c4ccc5c(c4)CC[C@@H](N4C6COCC4C6)CC5)cc23)cc1 [Example 47] and tell me its recorded IC50 on Axl (Homo sapiens).
Ans. < 100 nM

Qu. Please look at N#Cc1cccnc1-c1ccc(-c2c[nH]c3ncc(-c4ccc5c(c4)CC[C@@H](N4C6COCC4C6)CC5)cc23)cc1 [Example 46] and tell me its recorded IC50 on Axl (Homo sapiens).
Ans. < 100 nM

Qu. Please look at COc1cc(-c2n[nH]c3ncc(-c4ccc5c(c4)CC[C@@H](N4C6COCC4C6)CC5)cc23)ccc1-c1ccccn1 [Example 160] and tell me its recorded IC50 on Axl (Homo sapiens).
Ans. 100 to 1000 nM

Qu. Please look at CN(C)C(=O)c1ccccc1-c1ccc(-c2c[nH]c3ncc(-c4ccc5c(c4)CC[C@@H](N4C6COCC4C6)CC5)cc23)cn1 [Example 170] and tell me its recorded IC50 on Axl (Homo sapiens).
Ans. < 100 nM

Qu. Please look at Cc1cccnc1-c1ccc(-c2n[nH]c3ncc(-c4ccc5c(c4)CC[C@@](C)(N4CCC[C@H]4C)CC5)cc23)cc1 [Example 163] and tell me its recorded IC50 on Axl (Homo sapiens).
Ans. < 100 nM

Qu. Please look at Clc1cccnc1-c1ccc(-c2c[nH]c3ncc(-c4ccc5c(c4)CC[C@@H](N4C6COCC4C6)CC5)cc23)cc1 [Example 43] and tell me its recorded IC50 on Axl (Homo sapiens).
Ans. 100 to 1000 nM
